- system: T1, full-length beta-Catenin (Uniprot ID P35222) (Homo sapiens (Human), UniProt P35222 1-781)
- T1 construct: Used full-length in the FP and AlphaScreen assays; also called B-Catenin; bCat
- T1 sequence: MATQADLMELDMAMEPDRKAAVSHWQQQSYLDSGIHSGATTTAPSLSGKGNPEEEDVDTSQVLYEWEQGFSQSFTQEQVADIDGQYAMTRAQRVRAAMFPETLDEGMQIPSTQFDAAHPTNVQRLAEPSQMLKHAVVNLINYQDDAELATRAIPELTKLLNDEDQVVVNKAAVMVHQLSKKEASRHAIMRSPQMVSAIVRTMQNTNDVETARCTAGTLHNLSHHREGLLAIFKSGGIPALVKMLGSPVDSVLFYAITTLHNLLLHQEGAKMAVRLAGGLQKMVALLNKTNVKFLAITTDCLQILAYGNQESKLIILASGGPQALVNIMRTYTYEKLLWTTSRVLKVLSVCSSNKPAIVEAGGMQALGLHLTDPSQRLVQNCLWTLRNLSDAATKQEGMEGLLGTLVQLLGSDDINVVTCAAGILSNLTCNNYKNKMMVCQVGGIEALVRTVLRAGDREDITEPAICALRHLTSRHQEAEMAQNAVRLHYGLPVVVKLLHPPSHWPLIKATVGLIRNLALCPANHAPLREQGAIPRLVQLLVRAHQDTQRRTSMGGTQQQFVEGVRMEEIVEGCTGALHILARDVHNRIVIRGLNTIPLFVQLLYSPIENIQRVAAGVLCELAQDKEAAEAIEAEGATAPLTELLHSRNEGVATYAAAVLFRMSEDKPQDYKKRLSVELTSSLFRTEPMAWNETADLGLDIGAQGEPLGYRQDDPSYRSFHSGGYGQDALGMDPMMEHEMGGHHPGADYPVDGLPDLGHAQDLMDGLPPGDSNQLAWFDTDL
- method: AlphaScreen (nickel chelate) competition; full-length beta-catenin + biotin-TCF4(10-53) probe as competitor; peptide titrated
pEC50: −log10 of the molar value. Starred links: 1 amine or outer side, 2 acyl side, 3 side chain; linkers in the order of their positions; H or OH if unused. Positions of bridges follow the written chain, without caps; N, C: chain ends. Non-standard residues stand in square brackets, D forms with d. Primed or numbered codes have the meaning given here. B5(18) = 2,2-bis(4-pentenyl)glycine (2-amino-2-(pent-4-en-1-yl)hept-6-enoic acid), stitching residue, C=CCCCC(CCCC=C)(N[*:1])C(=O)[*:2]; B5(4) = 2,2-bis(4-pentenyl)glycine = 2-amino-2-(pent-4-en-1-yl)hept-6-enoic acid (stitching residue), C=CCCCC(CCCC=C)(N[*:1])C(=O)[*:2]; B5(19) = 2-amino-2-(pent-4-en-1-yl)hept-6-enoic acid (bis(4-pentenyl)glycine), C=CCCCC(CCCC=C)(N[*:1])C(=O)[*:2]; B5(3) = 2,2-bis(4-pentenyl)glycine (stitching residue), C=CCCCC(CCCC=C)(N[*:1])C(=O)[*:2]; Phe(3,4-F2) = N[C@@H](Cc1ccc(F)c(F)c1)C(=O)O; Phe(3-Me) = Cc1cccc(C[C@H](N)C(=O)O)c1; 2Nal = N[C@@H](Cc1ccc2ccccc2c1)C(=O)O; αAllylPro = C=CC[C@@]1(C(=O)O)CCCN1; hPhe = N[C@@H](CCc1ccccc1)C(=O)O; 3Pal = N[C@@H](Cc1cccnc1)C(=O)O; S8 = C=CCCCCCC[C@](C)(N)C(=O)O
pEC50 values for the binders below.

binder	pEC50
Ac-[αAllylPro]DA[B5(19)]D[dE]AAFV[S8]FWQ-NH2 (staple 1-4, 4-11, Stapled peptide composition) [I-182]	6.12
Ac-[αAllylPro]DA[B5(4)]D[hPhe]AAFV[S8]FWQ-NH2 (staple 1-4, 4-11, Stapled peptide composition) [I-195]	5.66
Ac-[αAllylPro][Phe(3-Me)]A[B5(3)]DEAAFV[S8]FWQ-NH2 (staple 1-4, 4-11, Stapled peptide composition) [I-203]	5.22
Ac-[αAllylPro]FA[B5(3)]DEAAFV[S8]FWQ-NH2 (staple 1-4, 4-11, Stapled peptide composition) [I-201]	5.21
Ac-[αAllylPro]DA[B5(18)]DEAA[Phe(3,4-F2)]A[S8]F[2Nal]A-NH2 (staple 1-4, 4-11, Stapled peptide composition) [I-185]	5.57
Ac-[αAllylPro]DA[B5(4)][3Pal]EAAFV[S8]FWQ-NH2 (staple 1-4, 4-11, Stapled peptide composition) [I-213]	5.09
